Reference source: patent US11981658B2

Biological target: EGFR wildtype (WT) (Homo sapiens, UniProt P00533)
Sequence (P00533 25-1210): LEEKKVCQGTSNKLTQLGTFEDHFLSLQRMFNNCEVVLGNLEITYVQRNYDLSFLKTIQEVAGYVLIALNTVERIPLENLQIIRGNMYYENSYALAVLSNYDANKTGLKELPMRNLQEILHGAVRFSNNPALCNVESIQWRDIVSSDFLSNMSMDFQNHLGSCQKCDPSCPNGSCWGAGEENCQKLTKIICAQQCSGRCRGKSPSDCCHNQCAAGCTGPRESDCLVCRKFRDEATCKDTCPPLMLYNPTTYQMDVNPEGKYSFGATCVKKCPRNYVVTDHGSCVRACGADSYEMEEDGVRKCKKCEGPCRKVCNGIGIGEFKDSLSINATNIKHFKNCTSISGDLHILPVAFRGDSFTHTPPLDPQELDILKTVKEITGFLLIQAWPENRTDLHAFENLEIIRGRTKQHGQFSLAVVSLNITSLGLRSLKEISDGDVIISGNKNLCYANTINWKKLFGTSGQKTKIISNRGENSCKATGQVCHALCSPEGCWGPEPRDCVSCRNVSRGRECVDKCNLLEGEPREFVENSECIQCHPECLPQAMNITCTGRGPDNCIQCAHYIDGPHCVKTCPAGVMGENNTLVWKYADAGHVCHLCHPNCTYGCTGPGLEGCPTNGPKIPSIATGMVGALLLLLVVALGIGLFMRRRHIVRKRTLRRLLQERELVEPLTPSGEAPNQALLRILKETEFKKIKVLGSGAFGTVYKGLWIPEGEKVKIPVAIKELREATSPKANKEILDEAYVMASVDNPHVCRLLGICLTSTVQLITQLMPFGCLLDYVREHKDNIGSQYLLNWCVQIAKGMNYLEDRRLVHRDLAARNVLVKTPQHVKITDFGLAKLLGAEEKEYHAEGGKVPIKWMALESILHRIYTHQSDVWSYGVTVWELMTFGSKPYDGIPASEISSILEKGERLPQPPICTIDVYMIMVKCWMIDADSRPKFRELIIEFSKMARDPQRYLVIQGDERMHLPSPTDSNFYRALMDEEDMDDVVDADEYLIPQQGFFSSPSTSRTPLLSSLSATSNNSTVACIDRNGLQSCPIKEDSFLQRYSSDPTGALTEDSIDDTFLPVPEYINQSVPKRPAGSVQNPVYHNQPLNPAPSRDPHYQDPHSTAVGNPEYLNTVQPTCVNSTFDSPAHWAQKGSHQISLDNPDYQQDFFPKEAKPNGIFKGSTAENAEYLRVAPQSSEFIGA
Assay: Biochemical EGFR kinase inhibition assay (Lance Ultra TR-FRET), wildtype
Conditions: IC50 WT (nM), 100 μM ATP
Measure: IC50 (nM)

Some compounds with known IC50 results, for comparison:
CN1CCC2(CC1)CCN(c1cc(Nc3ccnc(-c4cnn(S(=O)(=O)C5CC5)c4)n3)ncc1C#Cc1cnn(CC3CC3)c1)CC2: 5670
CC(C)(O)CC#Cc1cnc(Nc2ccnc(-c3cnn(S(=O)(=O)C4CC4)c3)n2)cc1N1CCC(C)(CO)CC1: 7270
O=S(=O)(C1CC1)n1cc(-c2nccc(Nc3cc(N[C@H]4CC[C@@H](NCCF)CC4)c(C#Cc4cnn(CC(F)(F)F)c4)cn3)n2)cn1: 7830

P = CN(C)CC1(C)CCN(c2cc(Nc3ccnc(-c4cnn(S(=O)(=O)C5CC5)c4)n3)ncc2C#Cc2cnn(C3CC3)c2)CC1
Q = Cn1cc(C#Cc2cnc(Nc3ccnc(-c4cnn(S(=O)(=O)C5CC5)c4)n3)cc2N2CCC(C)(CO)CC2)cn1
Data request: Among P and Q , whose measured IC50 is the smaller figure? Mark your answer with the label of the selected entry.
Data returned: Q
(Q: 1100 nM, P: 7510 nM)

###

Biological target: EGFR L858R/C797S (Homo sapiens, UniProt P00533, C797S/L858R)
Assay: Biochemical EGFR kinase inhibition assay (Lance Ultra TR-FRET), double mutant L858R/C797S
Conditions: IC50 L858R/C797S (nM), 100 μM ATP
Measure: IC50 (nM)

Some molecules with known IC50 results, for comparison:
O=S(=O)(C1CC1)n1cc(-c2nccc(Nc3cc(N[C@H]4CC[C@@H](O)CC4)c(C#Cc4ccc(CN5CCOCC5)s4)cn3)n2)cn1: 71.5
CN(C)C[C@H]1CC[C@@H](Nc2cc(Nc3ccnc(-c4cnn(S(=O)(=O)C5CC5)c4)n3)ncc2C#Cc2cnn(C3CC3)c2)CC1: 9
Cn1cc(C#Cc2cnc(Nc3ccnc(-c4cnn(S(=O)(=O)C5CC5)c4)n3)cc2N2CCCC(CO)C2)cn1 (centres unmarked): 27.5
CC(=O)N1CCC(n2cc(C#Cc3cnc(Nc4ccnc(-c5cnn(S(=O)(=O)C6CC6)c5)n4)cc3N3CCC(NCCN(C)C)CC3)cn2)CC1: 8.2

I = O=S(=O)(C1CC1)n1cc(-c2nccc(Nc3cc(NC4CCC(O)CC4)c(C#Cc4cnn(C5CC5(F)F)c4)cn3)n2)cn1 (centres unmarked)
II = Cn1ccc(C#Cc2cnc(Nc3ccnc(-c4cnn(S(=O)(=O)C5CC5)c4)n3)cc2N2CCC(NCCF)CC2)n1
III = CN(C)CCn1cc(C#Cc2cnc(Nc3ccnc(-c4cnn(S(=O)(=O)C5CC5)c4)n3)cc2N2CCCC(CO)C2)cn1 (centres unmarked)
IV = CC(C)(O)C1CCN(c2cc(Nc3ccnc(-c4cnn(S(=O)(=O)C5CC5)c4)n3)ncc2C#Cc2cnn(C(F)(F)F)c2)CC1
Data request: Please rank these molecules by IC50 in descending order. Note for the reader: the ranking is given by listing the labels in the order requested.
Data returned: II, IV, I, III
(II: 1900 nM, IV: 125 nM, I: 50.8 nM, III: 8.5 nM)

A = O=S(=O)(C1CC1)n1cc(-c2nccc(Nc3cc(N[C@H]4CC[C@@H](CO)CC4)c(C#Cc4cnn(CC(F)(F)F)c4)cn3)n2)cn1
B = Cn1cc(C#Cc2cnc(Nc3ccnc(-c4cnn(S(=O)(=O)C5CC5)c4)n3)cc2N2CCC(O)C(C)(C)C2)cn1 (centres unmarked)
C = CC1(CO)CCN(c2cc(Nc3ccnc(-c4cnn(S(=O)(=O)C5CC5)c4)n3)ncc2C#CC2(O)CCCOC2)CC1 (centres unmarked)
D = O=S(=O)(C1CC1)n1cc(-c2nccc(Nc3cc(N[C@H]4CC[C@@H](CO)CC4)c(C#CC4C[C@@H]5CC[C@@H]4O5)cn3)n2)cn1 (some centres unmarked)
E = CN1CC(n2cc(C#Cc3cnc(Nc4ccnc(-c5cnn(S(=O)(=O)C6CC6)c5)n4)cc3N3CCC(C)(CO)CC3)cn2)C1
Data request: rank_up(items): orders items by reported IC50 in ascending numerical order. Note for the reader: the ranking is given by listing the labels in the order requested.
Data returned: E, C, A, D, B

A = Cn1cc(C#Cc2cnc(Nc3ccnc(-c4cnn(S(=O)(=O)C5CC5)c4)n3)cc2N2CCC(NCCO)CC2)cn1
B = CC1(CO)CCN(c2cc(Nc3ccnc(-c4cnn(S(=O)(=O)C5CC5)c4)n3)ncc2C#Cc2cnn(CC(F)F)c2)CC1
Data request: Among A and B , whose measured IC50 is the smaller figure? Mark your answer with the label of the selected entry.
Data returned: B
(B: 7.2 nM, A: 35.6 nM)

a = CC1(O)CCN(c2cc(Nc3ccnc(-c4cnn(S(=O)(=O)C5CC5)c4)n3)ncc2C#CC2CC3CCC2O3)CC1 (centres unmarked)
b = C[C@]1(O)CCCN(c2cc(Nc3ccnc(-c4cnn(S(=O)(=O)C5CC5)c4)n3)ncc2C#Cc2cnn(C(F)(F)F)c2)C1
Data request: Identify the entry with the larger IC50. Options: a and b Mark your answer with the label of the selected entry.
Data returned: b
(b: 503 nM, a: 47.7 nM)

###

Molecular target: EGFR Del19/C797S (Homo sapiens, UniProt P00533, C797S/DEL746-750)
Sequence (P00533 with tags, fused parts or gaps DEL746-750/C797S): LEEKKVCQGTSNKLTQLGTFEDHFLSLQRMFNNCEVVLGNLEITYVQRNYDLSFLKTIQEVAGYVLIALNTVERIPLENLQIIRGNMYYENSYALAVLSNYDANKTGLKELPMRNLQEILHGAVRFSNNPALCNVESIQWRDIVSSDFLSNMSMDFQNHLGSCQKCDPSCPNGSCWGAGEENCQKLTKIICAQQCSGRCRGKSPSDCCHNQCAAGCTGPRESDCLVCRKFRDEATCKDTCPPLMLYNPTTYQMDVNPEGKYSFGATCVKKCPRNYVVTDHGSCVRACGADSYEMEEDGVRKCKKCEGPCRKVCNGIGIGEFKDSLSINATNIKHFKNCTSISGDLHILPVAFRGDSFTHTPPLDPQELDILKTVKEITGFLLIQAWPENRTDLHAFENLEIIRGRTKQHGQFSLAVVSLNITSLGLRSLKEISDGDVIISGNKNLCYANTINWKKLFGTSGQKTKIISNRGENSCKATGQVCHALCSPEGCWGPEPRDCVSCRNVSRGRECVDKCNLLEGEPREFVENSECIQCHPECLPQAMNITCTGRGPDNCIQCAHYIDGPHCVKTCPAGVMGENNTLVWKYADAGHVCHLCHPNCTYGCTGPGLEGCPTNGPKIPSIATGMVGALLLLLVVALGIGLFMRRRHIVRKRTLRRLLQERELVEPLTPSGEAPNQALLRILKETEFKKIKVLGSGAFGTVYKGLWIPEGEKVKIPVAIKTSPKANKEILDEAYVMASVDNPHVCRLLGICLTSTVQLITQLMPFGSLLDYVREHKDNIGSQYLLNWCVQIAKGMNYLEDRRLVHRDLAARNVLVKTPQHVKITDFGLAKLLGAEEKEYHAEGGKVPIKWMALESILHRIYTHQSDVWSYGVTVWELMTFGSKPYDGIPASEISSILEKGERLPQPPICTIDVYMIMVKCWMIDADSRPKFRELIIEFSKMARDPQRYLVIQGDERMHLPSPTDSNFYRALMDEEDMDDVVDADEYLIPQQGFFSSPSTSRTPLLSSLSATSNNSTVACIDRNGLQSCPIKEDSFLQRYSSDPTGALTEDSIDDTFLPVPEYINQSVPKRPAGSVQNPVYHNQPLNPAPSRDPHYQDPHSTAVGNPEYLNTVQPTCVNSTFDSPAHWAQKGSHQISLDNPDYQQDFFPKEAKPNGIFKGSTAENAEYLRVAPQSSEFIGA
Assay: Biochemical EGFR kinase inhibition assay (Lance Ultra TR-FRET), double mutant del19/C797S
Conditions: IC50 Del19/C797S (nM), 100 μM ATP
Measure: IC50 (nM)

O=S(=O)(C1CC1)n1cc(-c2nccc(Nc3cc(N[C@@H]4CCC[C@H](O)C4)c(C#Cc4ccc(CN5CCOCC5)cc4)cn3)n2)cn1: 10.1
CN(C)CC1(C)CCN(c2cc(Nc3ccnc(-c4cnn(S(=O)(=O)C5CC5)c4)n3)ncc2C#CC2CCO[C@H]2C(F)(F)F)CC1 (stereo partly shown): 10.1
CC1(CO)CCN(c2cc(Nc3ccnc(-c4cnn(S(=O)(=O)C5CC5)c4)n3)ncc2C#Cc2cnn(C(F)(F)F)c2)CC1: 7.9
CC1(CO)CCN(c2cc(Nc3ccnc(-c4cnn(S(=O)(=O)C5CC5)c4)n3)ncc2C#CC2CCN(S(=O)(=O)C3CC3)C2)CC1 (stereo not shown): 8.3
CC1(CO)CCN(c2cc(Nc3ccnc(-c4cnn(S(=O)(=O)C5CC5)c4)n3)ncc2C#CCCO)CC1: 0.6

1 = CC(O)C1CCN(c2cc(Nc3ccnc(-c4cnn(S(=O)(=O)C5CC5)c4)n3)ncc2C#Cc2cnn(C(F)(F)F)c2)CC1 (stereo not shown)
2 = CC1(CO)CCN(c2cc(Nc3ccnc(-c4cnn(S(=O)(=O)C5CC5)c4)n3)ncc2C#CC2CCOCC2)CC1
Data request: Identify the entry with the larger IC50. Options: 1 and 2 Mark your answer with the label of the selected entry.
Data returned: 1
(1: 648 nM, 2: 1.9 nM)

###

Target: EGFR L858R/T790M/C797S (Homo sapiens, UniProt P00533, C797S/L858R/T790M)
Sequence (P00533 25-1210 T790M/C797S/L858R): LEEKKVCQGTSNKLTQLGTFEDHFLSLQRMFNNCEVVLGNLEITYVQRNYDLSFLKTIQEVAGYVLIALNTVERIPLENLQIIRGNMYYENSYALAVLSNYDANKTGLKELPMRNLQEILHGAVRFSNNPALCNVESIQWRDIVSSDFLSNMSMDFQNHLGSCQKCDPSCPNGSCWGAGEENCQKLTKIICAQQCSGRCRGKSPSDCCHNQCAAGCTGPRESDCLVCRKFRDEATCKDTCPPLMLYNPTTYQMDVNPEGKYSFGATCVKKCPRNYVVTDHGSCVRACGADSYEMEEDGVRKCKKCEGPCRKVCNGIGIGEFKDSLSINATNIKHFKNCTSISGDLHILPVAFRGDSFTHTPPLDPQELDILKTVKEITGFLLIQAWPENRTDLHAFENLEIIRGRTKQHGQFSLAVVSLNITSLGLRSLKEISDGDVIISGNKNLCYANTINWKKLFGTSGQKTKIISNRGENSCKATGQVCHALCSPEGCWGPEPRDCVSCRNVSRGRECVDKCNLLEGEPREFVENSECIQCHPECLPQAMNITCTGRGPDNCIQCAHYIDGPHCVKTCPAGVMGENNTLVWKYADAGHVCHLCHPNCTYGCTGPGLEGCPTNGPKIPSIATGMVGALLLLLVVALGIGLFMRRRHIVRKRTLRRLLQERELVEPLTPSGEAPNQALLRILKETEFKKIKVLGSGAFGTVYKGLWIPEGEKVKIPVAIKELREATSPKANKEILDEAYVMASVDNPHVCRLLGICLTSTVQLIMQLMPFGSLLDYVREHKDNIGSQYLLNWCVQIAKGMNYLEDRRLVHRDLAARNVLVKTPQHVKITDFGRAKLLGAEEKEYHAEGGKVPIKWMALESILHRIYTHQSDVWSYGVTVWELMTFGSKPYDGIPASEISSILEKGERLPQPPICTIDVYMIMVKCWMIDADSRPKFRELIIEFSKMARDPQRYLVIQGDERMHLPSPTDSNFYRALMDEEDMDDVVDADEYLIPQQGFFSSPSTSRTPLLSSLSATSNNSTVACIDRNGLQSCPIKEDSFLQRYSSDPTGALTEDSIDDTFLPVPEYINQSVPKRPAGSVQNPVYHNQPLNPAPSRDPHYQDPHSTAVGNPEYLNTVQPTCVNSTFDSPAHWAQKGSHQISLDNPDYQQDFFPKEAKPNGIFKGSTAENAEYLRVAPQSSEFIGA
Assay: Biochemical EGFR kinase inhibition assay (Lance Ultra TR-FRET), triple mutant L858R/T790M/C797S
Settings: Km ATP; read-out: IC50 L858R/T790M/C797S (nM), Km ATP
Description: Biochemical EGFR kinase assays were conducted using Lance Ultra time-resolved fluorescence resonance energy transfer (TR-FRET) technology from Perkin-Elmer. […] Each kinase reactions were incubated at room temperature for 1 hour and then stopped by the addition of 4 μL of stop solution (10 mM EDTA). […] After 60 minutes incubation at room temperature the LANCE signal was measured on an EnVision Multilabel Reader (Perkin-Elmer). […]
Measure: IC50 (nM)

1 = CC1(CO)CCN(c2cc(Nc3ccnc(-c4cnn(S(=O)(=O)C5CC5)c4)n3)ncc2C#CC2CCN(S(C)(=O)=O)C2)CC1 (stereo not drawn)
2 = CN1CCN(Cc2ccc(C#Cc3cnc(Nc4ccnc(-c5cnn(S(=O)(=O)C6CC6)c5)n4)cc3N3CCC(C)(O)CC3)cc2)CC1
Data request: Among 1 and 2 , whose measured IC50 is the smaller figure? Mark your answer with the label of the selected entry.
Data returned: 2

###

Molecular target: EGFR Del19/T790M/C797S (Homo sapiens, UniProt P00533, C797S/DEL746-750/T790M)
Sequence (P00533 with tags, fused parts or gaps DEL746-750/T790M/C797S): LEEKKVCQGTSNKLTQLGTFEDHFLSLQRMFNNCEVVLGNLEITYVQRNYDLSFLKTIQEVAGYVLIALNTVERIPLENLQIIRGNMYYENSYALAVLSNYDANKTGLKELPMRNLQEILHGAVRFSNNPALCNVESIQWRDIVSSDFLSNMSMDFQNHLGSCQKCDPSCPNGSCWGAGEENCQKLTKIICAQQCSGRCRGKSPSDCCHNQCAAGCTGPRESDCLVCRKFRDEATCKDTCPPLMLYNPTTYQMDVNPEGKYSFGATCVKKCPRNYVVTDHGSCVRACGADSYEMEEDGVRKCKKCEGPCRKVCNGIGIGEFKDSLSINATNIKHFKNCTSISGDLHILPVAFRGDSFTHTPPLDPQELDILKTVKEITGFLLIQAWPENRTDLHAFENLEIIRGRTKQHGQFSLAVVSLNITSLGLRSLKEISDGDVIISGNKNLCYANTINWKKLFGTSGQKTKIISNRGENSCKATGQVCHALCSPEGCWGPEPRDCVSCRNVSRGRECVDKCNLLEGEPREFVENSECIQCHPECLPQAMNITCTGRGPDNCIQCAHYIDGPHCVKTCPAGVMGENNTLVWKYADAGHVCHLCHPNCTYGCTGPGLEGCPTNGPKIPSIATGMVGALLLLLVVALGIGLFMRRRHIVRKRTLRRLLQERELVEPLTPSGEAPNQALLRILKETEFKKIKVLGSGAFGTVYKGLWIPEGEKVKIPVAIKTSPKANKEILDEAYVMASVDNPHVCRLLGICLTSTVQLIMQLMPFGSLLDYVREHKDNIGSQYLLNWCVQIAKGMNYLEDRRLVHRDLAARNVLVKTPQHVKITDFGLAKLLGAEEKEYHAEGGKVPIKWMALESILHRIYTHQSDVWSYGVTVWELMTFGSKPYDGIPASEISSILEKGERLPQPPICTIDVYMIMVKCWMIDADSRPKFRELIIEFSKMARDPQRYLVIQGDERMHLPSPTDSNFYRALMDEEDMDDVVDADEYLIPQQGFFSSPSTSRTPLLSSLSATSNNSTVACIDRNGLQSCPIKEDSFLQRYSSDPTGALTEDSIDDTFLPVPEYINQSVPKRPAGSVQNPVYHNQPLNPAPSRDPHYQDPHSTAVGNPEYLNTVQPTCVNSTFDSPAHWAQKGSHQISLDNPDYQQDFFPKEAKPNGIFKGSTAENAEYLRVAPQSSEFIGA
Assay: Biochemical EGFR kinase inhibition assay (Lance Ultra TR-FRET), triple mutant del19/T790M/C797S
Conditions: Km ATP; read-out: IC50 Del19/T790M/C797S (nM), Km ATP
Measure: IC50 (nM)

Some compounds with known IC50 results, for comparison:
O=S(=O)(C1CC1)n1cc(-c2nccc(Nc3cc(NC4CCC(O)CC4)c(C#CC4CCCO4)cn3)n2)cn1 (centres unmarked): 0.3
CN(C)CCC1CCCN(c2cc(Nc3ccnc(-c4cnn(S(=O)(=O)C5CC5)c4)n3)ncc2C#Cc2cnn(C)c2)C1 (centres unmarked): 1
CC1OCCC1C#Cc1cnc(Nc2ccnc(-c3cnn(S(=O)(=O)C4CC4)c3)n2)cc1N1CCC(C)(CO)CC1 (centres unmarked): 0.3
O=S(=O)(C1CC1)n1cc(-c2nccc(Nc3cc(N4CCC5(CCO5)CC4)c(C#Cc4ncc(CN5CCOCC5)cn4)cn3)n2)cn1: 0.3
CC1(O)CCN(c2cc(Nc3ccnc(-c4cnn(S(=O)(=O)C5CC5)c4)n3)ncc2C#CC2CC3CCC2O3)CC1 (centres unmarked): 0.3

I = O=S(=O)(C1CC1)n1cc(-c2nccc(Nc3cc(N4C[C@H]5C[C@@]5(CO)C4)c(C#Cc4cnn(C(F)(F)F)c4)cn3)n2)cn1
II = CN1CCN(Cc2ccc(C#Cc3cnc(Nc4ccnc(-c5cnn(S(=O)(=O)C6CC6)c5)n4)cc3N[C@H]3CC[C@]4(CCC(=O)N4)CC3)cc2)CC1
Data request: Among I and II , whose measured IC50 is the smaller figure? Mark your answer with the label of the selected entry.
Data returned: II

I = O=S(=O)(C1CC1)n1cc(-c2nccc(Nc3cc(N[C@H]4CC[C@@H](O)CC4)c(C#CC4C[C@@H]5CC[C@@H]4O5)cn3)n2)cn1 (some centres unmarked)
II = O=S(=O)(C1CC1)n1cc(-c2nccc(Nc3cc(N[C@H]4CC[C@@H](NCCF)CC4)c(C#Cc4cnn(CC(F)(F)F)c4)cn3)n2)cn1
III = O=S(=O)(C1CC1)n1cc(-c2nccc(Nc3cc(N[C@H]4CC[C@@H](O)CC4)c(C#CC4COC4)cn3)n2)cn1
Data request: Please rank these compounds by IC50 in descending order. Note for the reader: the ranking is given by listing the labels in the order requested.
Data returned: II, I, III
(II: 1.5 nM, I: 0.3 nM, III: 0.2 nM)

1 = O=C(c1ccc(C#Cc2cnc(Nc3ccnc(-c4cnn(S(=O)(=O)C5CC5)c4)n3)cc2N[C@H]2CC[C@@H](CO)CC2)cc1)N1CCC(O)CC1
2 = O=S(=O)(C1CC1)n1cc(-c2nccc(Nc3cc(N4CCC5(CCCO5)CC4)c(C#Cc4ncc(CN5CCOCC5)cn4)cn3)n2)cn1
Data request: Among 1 and 2 , whose measured IC50 is the smaller figure? Mark your answer with the label of the selected entry.
Data returned: 2
(2: 0.3 nM, 1: 2.1 nM)

A = C[C@]1(O)CCCN(c2cc(Nc3ccnc(-c4cnn(S(=O)(=O)C5CC5)c4)n3)ncc2C#Cc2cnn(CCF)c2)C1
B = CC1(C#Cc2cnc(Nc3ccnc(-c4cnn(S(=O)(=O)C5CC5)c4)n3)cc2N2CCC(C)(CO)CC2)CC1
Data request: Identify the entry with the larger IC50. Options: A and B Mark your answer with the label of the selected entry.
Data returned: B
